These entries and their values trace back to patent US7479564B2.

List of melting point values.

The cases that follow already have their melting point on record.
mol=Cc1ccc(S(=O)(=O)NC(=O)OCCc2ccc(-n3c(CCC(=O)N4CCCC4)nc4cc(C(F)(F)F)c(Cl)cc43)cc2)cc1 measured_metric="melting point" meas_value="98 to 105 °C"
mol=Cc1ccc(S(=O)(=O)NC(=O)OCCc2ccc(-n3c(CCCN4CCCC4=O)nc4cc(C(F)(F)F)c(Cl)cc43)cc2)cc1 measured_metric="melting point" meas_value="85 to 90 °C"
mol=CCc1nc2cc(C(N)=O)c(Cl)cc2n1-c1ccc(CCOC(=O)NS(=O)(=O)c2ccc(C)cc2)cc1 measured_metric="melting point" meas_value="170 to 175 °C"
mol=CCc1nc2cc(C(=O)NC)c(Cl)cc2n1-c1ccc(CCOC(=O)NS(=O)(=O)c2ccc(C)cc2)cc1 measured_metric="melting point" meas_value="201 to 204 °C"

Attention now shifts to the item below.
Would you mind telling me what melting point value was observed for `Cc1ccc(S(=O)(=O)NC(=O)OCCc2ccc(-n3c(CCC(=O)c4cccnc4)nc4cc(C(F)(F)F)c(Cl)cc43)cc2)cc1` ? 89 to 95 °C
